TARGET_OF_ASSAY: T1, human 4-1BB, full length, on transfected cells (human, UniProt Q07011 24-255)
T1 construct: whole, on cells; also called CHOK1-h4-1BB
TEST_SUMMARY: FACS, CHOK1-h4-1BB cells; Ab 0.0032 ug/ml
Let's look at some binders and their measured average fluorescence intensity.

BINDER	average fluorescence intensity, MFI
15G10D4 (antibody, V domains shown) VH: QVQLVESGGGVVQPGRSLRLSCAASGFSFSSYAMHWVRQAPGKGLEWVAIIWYDGSNQYYADSVKGRFTISRDNSKNTLYLQMNSLRAEDTAVYYCARVKQWLVSYFDYWGQGTLVTVSS VL: EIVMTQSPATLSVSPGERATLSCRASQSVSSNLAWYQQKPGQVPRLLIYGASTRATGIPARFSGSGSGTEFSLIISSLQSEDFAVYYCQQYNNWPTFGGGTKVEIK	28.8
52F4G2 (antibody, V domains shown) VH: QVQLQESGPGLVKPSETLSLTCAVSGYSISSGYYWGWIRQPPGKGLEWIGSIFHSGSSYYNPSLKSRVTISVDTSKNQFSLKLRSVTAADTAVYYCARESSGWNCFDYWGQGTLVTVSS VL: DIQMTQSPSTLSASVGDRVTITCRASQTISTWLAWYQQKPGKAPKLLIYKASNLESGVPSRFSGSGSGTEFTLTISSLQPDDFATYYCQQYNSYSITFGQGTRLEIK	38.3
113F6C6 (antibody, V domains shown, also called 4-1BB fully human antibody 113F6C6; 113F6F6) VH: QVQLVESGGGVVQPGRSLRLSCAASGLTFSSYGMHWVRQAPGKGLEWVAVIWYDGSNKYYADSVKGRFTISRDNSKNTLYLQMNSLRAEDTAVYYCAREEVLWFGELSYNYYYGMDVWGQGTTVTVSS VL: DIQMTQSPSSLSASVGDRVTITCRASQGISNYLAWYQQKPGKVPKLLIYAASTLQSGVPSRFSGSGSGTDFTLTISSLQPEDVATYYCQKYNSVPLTFGGGTKVEIK	13.7
